All figures here come from patent US20170210741A1.

Let's look at some molecules and their measured log10 of IC50.
tested on: Suit-2; assay: In vitro cell viability assay (Cell Titer Glo), pancreatic cancer Suit-2; type: cell-based; conditions: Suit-2, CSC enriching serum free medium, non-adherent plates, 72 h; read-out: Cell viability (IC50) Suit-2 CSC
Parameter measured: log10 of IC50 (log10 of the value in nM)

• c1cc2[nH]c(-c3ccc(N4CCCC4)cc3)nc2cn1 [Compound 28] = 2.18
• FC(F)(F)c1cc2nc(-c3ccc(N4CCCC4)cc3)[nH]c2cc1Cl [Compound 32] = 3.04
• Fc1cc2[nH]c(-c3ccc(OC(F)(F)F)cc3)nc2cc1C(F)(F)F [Compound 25] = 3.31
• FC(F)(F)c1ccc(-c2nc3c(Cl)cc(Cl)cc3[nH]2)cc1 [Compound 7] = 2.79
• CN1CCN(c2ccc(-c3nc4cc(Cl)c(Cl)cc4[nH]3)cc2)CC1 [Compound 10] = 3.13
• Fc1cc2[nH]c(-c3ccc(N4CCCC4)cc3)nc2cc1Cl [Compound 31] = 2.97
• Oc1ccc(F)cc1-c1nc2c(Cl)cc(Cl)cc2[nH]1 [Compound 1] = 3.45
• FC(F)(F)Oc1ccc(-c2nc3c(Cl)cc(Cl)cc3[nH]2)cc1 [Compound 8] = 2.92
